# Study System: PI3K delta (Homo sapiens)
# Construct: for the full-length p110-d subunit are generated and fused by overlapping PCR; His tag (C); made in house; host or cells: baculovirus BV1060; Tn5 (Trichoplusia ni) or TiniPro insect cells
# Sequence (O00329 with tags, fused parts or gaps limits assumed): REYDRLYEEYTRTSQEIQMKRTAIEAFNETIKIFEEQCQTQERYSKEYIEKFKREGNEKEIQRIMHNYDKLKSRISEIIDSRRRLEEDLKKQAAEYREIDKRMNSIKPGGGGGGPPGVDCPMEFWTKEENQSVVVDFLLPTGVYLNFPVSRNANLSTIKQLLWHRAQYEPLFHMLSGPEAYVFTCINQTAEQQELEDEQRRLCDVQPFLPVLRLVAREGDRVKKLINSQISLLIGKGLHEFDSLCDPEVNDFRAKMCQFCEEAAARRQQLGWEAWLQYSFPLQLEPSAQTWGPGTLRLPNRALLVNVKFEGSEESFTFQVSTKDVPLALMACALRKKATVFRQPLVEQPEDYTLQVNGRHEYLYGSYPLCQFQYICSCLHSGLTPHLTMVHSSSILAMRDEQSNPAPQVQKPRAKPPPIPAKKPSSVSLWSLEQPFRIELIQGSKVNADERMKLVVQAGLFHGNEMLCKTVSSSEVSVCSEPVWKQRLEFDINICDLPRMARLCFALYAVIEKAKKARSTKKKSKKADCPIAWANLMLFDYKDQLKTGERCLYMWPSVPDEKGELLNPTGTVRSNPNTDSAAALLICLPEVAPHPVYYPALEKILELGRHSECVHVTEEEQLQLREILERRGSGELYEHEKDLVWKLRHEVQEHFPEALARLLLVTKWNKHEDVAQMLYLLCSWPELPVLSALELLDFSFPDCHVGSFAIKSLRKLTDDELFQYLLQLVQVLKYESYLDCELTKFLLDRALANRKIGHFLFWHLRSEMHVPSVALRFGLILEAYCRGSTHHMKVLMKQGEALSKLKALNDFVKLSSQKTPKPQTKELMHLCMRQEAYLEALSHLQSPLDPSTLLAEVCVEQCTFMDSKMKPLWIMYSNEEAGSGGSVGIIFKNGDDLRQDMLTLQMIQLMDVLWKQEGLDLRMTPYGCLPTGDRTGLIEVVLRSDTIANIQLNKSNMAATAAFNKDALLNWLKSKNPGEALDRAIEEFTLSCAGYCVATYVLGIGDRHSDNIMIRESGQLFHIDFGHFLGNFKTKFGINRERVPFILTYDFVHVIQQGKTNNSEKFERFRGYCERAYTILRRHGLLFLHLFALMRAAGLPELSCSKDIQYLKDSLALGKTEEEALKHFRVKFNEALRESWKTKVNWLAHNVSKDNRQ
# Protocol Summary: PI3K delta kinase assay (Kinase-Glo luminescence)
# Assay type: biochemical
# Condition Details: read-out: EPK_PI3Kdelta/IC50
Reported Metric: pIC50
A value of pIC50 is the negative decimal logarithm of a concentration given in moles per litre.

Ask | Suppose we examine the compound CCOc1ccc(-c2ccc3ncc4c(c3c2)n(-c2cncc(C)c2)c(=O)n4C)cn1 [Example 17.1] ; what pIC50 value has been reported?
Reply | 6.56

Ask | Suppose we examine the compound CCOc1cc(-c2ccc3ncc4c(c3c2)n(-c2ccc(OCCOC)nc2C)c(=O)n4C)cnc1COC [Example 22.1] ; what pIC50 value has been reported?
Reply | 7.22

Ask | Suppose we examine the compound Cc1nc(N2CCC2)ccc1-n1c(=O)n(C)c2cnc3ccc(-c4cncc(C(C)(C)O)c4)cc3c21 [Example 23.3] ; what pIC50 value has been reported?
Reply | 7.80

Ask | Suppose we examine the compound Cc1nc(N2CCC2)ccc1-n1c(=O)n(C)c2cnc3ccc(-c4cncc(OC(C)C)c4)cc3c21 [Example 23.9] ; what pIC50 value has been reported?
Reply | 7.49
